The origin of these recorded values is ChEMBL document CHEMBL1201862.

Entries annotated with measured GI50
Test system: SN12C
ASSAY OVERVIEW: NCI tumour cell line growth inhibition, 48 h
Activity calls are given as the source filed them. No stated cut-off is given here; in the data, active = GI50 up to about 1.1 µM and inactive = higher.

Recorded results for 5 compounds are shown here.
[[record]]
compound = "C=CCSC1=N/C(=C\\c2ccc(Cl)cc2)C(=O)N1CC=C"
assay_value = "34.3 µM (inactive)"

[[record]]
compound = "O=C1/C(=C/c2cccc3ccccc23)CCc2ccc([N+](=O)[O-])cc21"
assay_value = "28.4 µM (inactive)"

[[record]]
compound = "CCP(=O)(CC)C(Cl)(Cl)C(O)C(Cl)(Cl)Cl (stereo not given)"
assay_value = "> 100 µM (inactive)"

[[record]]
compound = "COc1cc(C=O)cc(/C=N/n2c3ccccc3c3ccccc32)c1O"
assay_value = "5.46 µM (inactive)"

[[record]]
compound = "COc1ccc(-c2cc(O)c3c(C)ccnc3n2)cc1"
assay_value = "27.7 µM (inactive)"


Retrieve GI50 on SN12C; query c1ccc(CN2CCN3CCN(CC2)CCN(Cc2ccccc2)CC3)cc1
4.51 µM (inactive)

# assay system SN12C: give GI50 of Cc1nn(C(=O)c2ccccc2O)c2c1C(c1ccc3ccccc3c1O)SC(=N)N2 (stereo not given)
6.58 µM (inactive)

Provide the reported GI50 (system: SN12C) for O=[N+]([O-])c1ccc(NN=C2CN3CCN(C2)c2ccccc23)c([N+](=O)[O-])c1
> 100 µM (inactive)

Recall the reported GI50 of CC(=O)CC(=O)CCCC(=O)Nc1ccc(Cl)cc1Cl on SN12C and write it down.
> 100 µM (inactive)

Enter GI50 (test system SN12C) for COc1cc(C2SC(C)C(=O)N2c2ccc(-c3csc(NS(=O)(=O)c4ccc(Cl)c(OC)c4)n3)cc2)ccc1O (stereo not given)
20.6 µM (inactive)

----------
Test system: SK-MEL-28
ASSAY OVERVIEW: NCI tumour cell line growth inhibition, 48 h
Active and inactive are the calls of the source. Rule as the data show it: active = GI50 up to about 1.1 µM and inactive = higher.
Your reply should match one of these outcome classes. Yes for active, No for inactive

Here are 4 molecules together with their reported answers.
[[record]]
molecule = "Clc1ccccc1CN1COc2c(ccc3cccnc23)C1"
tested_target = "SK-MEL-28"
group_label = "No"

[[record]]
molecule = "COC(=O)C(C)(C)/N=C/N(C)C"
tested_target = "SK-MEL-28"
group_label = "No"

[[record]]
molecule = "O=C1C2C(C(=O)N1c1ccccc1)C1(c3ccccc3)CCC2(C(=O)c2ccccc2)O1 (stereo not given)"
tested_target = "SK-MEL-28"
group_label = "No"

[[record]]
molecule = "CC(C)C1OC(=O)C(Cc2ccccc2)N(C)C(=O)C(C(C)C)OC(=O)C(Cc2ccccc2)N(C)C(=O)C(C(C)C)OC(=O)C(Cc2ccccc2)N(C)C1=O (stereo not given)"
tested_target = "SK-MEL-28"
group_label = "Yes"


Consider the record given below.
Answer briefly: the call reported for Cc1nc(O)nc(O)c1/C=C/C(=O)O in this assay.
No

----------
compounds and their reported GI50
Tested on: SK-MEL-5
ASSAY OVERVIEW: NCI tumour cell line growth inhibition, 48 h
Activity calls are given as the source filed them. No stated cut-off is given here; in the data, active = GI50 up to about 1.1 µM and inactive = higher.

Some compounds with known GI50 results, for comparison:
[[record]]
compound = "CC1=C2C(c3ccccc3)(c3ccccc3)C3C=CC2(C=N3)N(C(=O)NC2CCCCC2)C1=O (centres undefined)"
assay_value = "16.8 µM (inactive)"

[[record]]
compound = "Cc1cn(C2OC(CO[Si](C)(C)C(C)(C)C)/C(=C\\C#N)C2O[Si](C)(C)C(C)(C)C)c(=O)[nH]c1=O (centres undefined)"
assay_value = "6.87 µM (inactive)"


Enter recorded GI50 with SK-MEL-5 for O=C1C(c2c(O)[nH]c3ccc(Cl)cc23)=Nc2ccccc21 here.
3.18 µM (inactive)
